molecular target: canine TGFβ1 (canine, UniProt P54831 279-390, limits assumed); assay: SPR, TGFβ on chip
Sequence (P54831 279-390 limits assumed): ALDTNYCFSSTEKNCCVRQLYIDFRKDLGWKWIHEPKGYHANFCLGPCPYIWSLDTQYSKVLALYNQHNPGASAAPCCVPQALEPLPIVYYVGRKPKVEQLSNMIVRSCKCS
Please respond with true when measured Kd is strictly beneath 3 nM, and with false in all other cases.

Sample answers from the record:
[[record]]
binder = "Can04H09 VH3/VL1 (antibody, V domains shown) VH: EVQLVQSAAEVKKPGASVKVSCKTSGYTFTSSWMNWVQQAPGAGLDWMGQIYPGDGDTNYNGKFKGRVTLTADTSTSTAYMELSSLRAEDTAVYYCARHYDGSTDYWGQGTLVTVSS VL: DIVMTQNPLSLSVSPGETASISCRASENIYSNLAWFRQKPGQSPQRLIYAATNLADGVPDRFSGSGSGTDFTLRISRVEADDTGVYYCQHFWGTPYTFGQGTK"
category = "false"

[[record]]
binder = "Can04H09 VH2/VL1 (antibody, V domains shown) VH: EVQLVQSAAEVKKPGASVKVSCKTSGYSFTSSWMNWVQQAPGKGLDWMGQIYPGDGDTNYNGKFKGRVTLTADKSTSTAYMELSSLRSEDAAVYYCARHYDGSTDYWGQGTLVTVSS VL: DIVMTQNPLSLSVSPGETASISCRASENIYSNLAWFRQKPGQSPQRLIYAATNLADGVPDRFSGSGSGTDFTLRISRVEADDTGVYYCQHFWGTPYTFGQGTK"
category = "false"

[[record]]
binder = "Can04H09 VH3/VL4 (antibody, V domains shown) VH: EVQLVQSAAEVKKPGASVKVSCKTSGYTFTSSWMNWVQQAPGAGLDWMGQIYPGDGDTNYNGKFKGRVTLTADTSTSTAYMELSSLRAEDTAVYYCARHYDGSTDYWGQGTLVTVSS VL: EIVMTQSPASLSLSQGEKVTITCRASENIYSNLAWYQQRPGQAPKLLIYAATNLADGVPSRFSGSGSGTDFSLTISSLEPEDVAVYYCQHFWGTPYTFGQGTK"
category = "true"

[[record]]
binder = "Can04H09 VH3/VL3 (antibody, V domains shown) VH: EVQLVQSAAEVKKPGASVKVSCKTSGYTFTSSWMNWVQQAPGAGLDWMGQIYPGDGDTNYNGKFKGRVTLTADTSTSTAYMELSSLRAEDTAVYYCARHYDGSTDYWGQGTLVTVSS VL: EIVMTQSPASLSLSQEEKVTITCRASENIYSNLAWYQQKPGQAPKLLIYAATNLADGVPSRFSGSGSGTDFSFTISSLEPEDVAVYYCQHFWGTPYTFGQGTK"
category = "true"


Does Can04H09 VH1/VL1 (antibody, V domains shown) VH: EVQLVQSGAEVKKPGASVKVSCKTSGYTFISSWMNWVRQAPGAGLDWMGQIYPGDGDTNYNGKFKGRVTLTADTSTSTAYMELSSLRAGDIAVYYCARHYDGSTDYWGQGTLVTVSS VL: DIVMTQNPLSLSVSPGETASISCRASENIYSNLAWFRQKPGQSPQRLIYAATNLADGVPDRFSGSGSGTDFTLRISRVEADDTGVYYCQHFWGTPYTFGQGTK have Kd strictly under 3 nM?
false
